- assay-summary: Biodistribution of the 99mTc(N) heterocomplexes in rats (organ uptake, heart accumulation, heart/lung and heart/liver ratios)
- Assay type: in vivo, female Sprague-Dawley rats
- stated-conditions: 60 min post injection
parameter-measured: Biodistribution in rats: Brain (% ID/g)

[ask] Give Biodistribution in rats: Brain for CCOCCN(CCOCC)C1=[S][99Tc+]2(#[N])([S]1)[P](CCCOC)(CCCOC)CCN(CCOC)CC[P]2(CCCOC)CCCOC [[^99mTc(N) (PNP3) (DBODC)]^+]
[reply] 0.01

[ask] Give Biodistribution in rats: Brain for COCCC[P]1(CCCOC)CCN(CCOC)CC[P](CCCOC)(CCCOC)[99Tc+]12(#[N])[S]C(N(CCOC)CCOC)=[S]2 [[^99mTc(N) (PNP3) (DPODC)]^+]
[reply] 0.01
